# tested_on: Corticotropin-releasing factor receptor 2/Corticotropin-releasing factor-binding protein (Homo sapiens, UniProt P24387+Q13324)
# Sequence (Q13324 whole entry): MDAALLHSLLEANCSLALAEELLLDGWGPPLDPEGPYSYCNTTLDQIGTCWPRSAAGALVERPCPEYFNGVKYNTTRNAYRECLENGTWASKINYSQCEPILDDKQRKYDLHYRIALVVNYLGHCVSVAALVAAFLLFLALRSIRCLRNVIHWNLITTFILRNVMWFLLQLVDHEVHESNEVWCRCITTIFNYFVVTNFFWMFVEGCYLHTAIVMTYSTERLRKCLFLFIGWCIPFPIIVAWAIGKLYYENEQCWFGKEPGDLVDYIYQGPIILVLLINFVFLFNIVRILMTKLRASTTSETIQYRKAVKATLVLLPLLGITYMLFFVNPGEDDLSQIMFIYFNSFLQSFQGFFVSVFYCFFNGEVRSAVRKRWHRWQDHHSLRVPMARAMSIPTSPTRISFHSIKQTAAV
# Sequence (P24387 whole entry): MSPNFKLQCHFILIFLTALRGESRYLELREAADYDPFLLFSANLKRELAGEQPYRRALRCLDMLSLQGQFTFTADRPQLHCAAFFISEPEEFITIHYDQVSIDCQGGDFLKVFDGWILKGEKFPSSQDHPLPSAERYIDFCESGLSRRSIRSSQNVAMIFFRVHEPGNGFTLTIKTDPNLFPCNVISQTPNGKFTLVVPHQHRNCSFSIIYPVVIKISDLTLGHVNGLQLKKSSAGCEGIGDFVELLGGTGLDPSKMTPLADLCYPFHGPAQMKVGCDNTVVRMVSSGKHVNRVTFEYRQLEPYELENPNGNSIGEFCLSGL
# experiment: activators of CRF receptor 2 with binding protein – uHTS hits, confirmation (AID 602473)
# Type: functional
# condition_notes: read-out: EC50_Mean
Active and inactive are the calls of the source. Cut-off read from the data, not from the text of the source: actives have a measured EC50 and inactives only a lower limit.
Classes used: active, inactive

[
  {
    "compound": "Cc1ccc(S(=O)(=O)n2nnc3ccccc32)c(C)c1C",
    "group_label": "inactive"
  },
  {
    "compound": "COc1cccc(C2CC(c3cccs3)=NN2C(=O)c2ccco2)c1O (stereo not given)",
    "group_label": "inactive"
  },
  {
    "compound": "COc1ccc(CNc2oc(COc3ccccc3)nc2C#N)cc1",
    "group_label": "inactive"
  },
  {
    "compound": "Cc1ccc(-c2csc3nnc(SCC(=O)N4CCN(Cc5ccccc5)CC4)n23)cc1",
    "group_label": "inactive"
  },
  {
    "compound": "CCCCNC(=O)CCc1nc2cccnc2n1Cc1ccc(OC)cc1",
    "group_label": "inactive"
  },
  {
    "compound": "O=C(CN1C(=O)NC2(CCCC2)C1=O)c1ccc(Cl)s1",
    "group_label": "inactive"
  },
  {
    "compound": "Cc1ccc(OCn2c(=O)sc3ccccc32)cc1",
    "group_label": "inactive"
  },
  {
    "compound": "O=c1cc(Cc2ccc([N+](=O)[O-])cc2)[nH]c(=O)[nH]1",
    "group_label": "inactive"
  },
  {
    "compound": "Cc1[nH]c2ccccc2c1C(=O)CN1CCCCC1C (stereo not given)",
    "group_label": "active"
  },
  {
    "compound": "COC(=O)c1c(C)[nH]c(O)c1/C=N/c1ccc(C(C)C)cc1",
    "group_label": "inactive"
  },
  {
    "compound": "N#Cc1ccccc1Sc1ccccc1N",
    "group_label": "inactive"
  },
  {
    "compound": "COc1cccc(/C(O)=C/c2nc3ccc(C(=O)NCCc4ccc(Cl)cc4)cc3nc2O)c1",
    "group_label": "active"
  },
  {
    "compound": "Cc1ccc(NS(=O)(=O)c2cccs2)cc1S(=O)(=O)N1CCCCCC1",
    "group_label": "inactive"
  },
  {
    "compound": "COc1ccc(/C=C2\\SC(=S)N(CC(=O)NCCO)C2=O)cc1",
    "group_label": "inactive"
  },
  {
    "compound": "CCOc1ccc(NC(=O)CCCN2C(=O)C(c3ccccc3)Oc3cccnc32)cc1 (stereo not given)",
    "group_label": "inactive"
  },
  {
    "compound": "Cn1c(SCC(=O)N/N=C/c2cc([N+](=O)[O-])ccc2O)nnc1-c1ccccc1",
    "group_label": "inactive"
  },
  {
    "compound": "CC1CCC(NC(=O)CCN2C(=O)C3CC=CCC3C2=O)CC1 (stereo not given)",
    "group_label": "inactive"
  },
  {
    "compound": "O=C1NC(=O)C2(N1)C(=O)c1cccc3cccc2c13 (stereo not given)",
    "group_label": "active"
  },
  {
    "compound": "C=CCn1c(C)cc(C(=O)CSc2nnc(Cc3ccccc3)o2)c1C",
    "group_label": "inactive"
  },
  {
    "compound": "COCC1CCN(Cc2nc(-c3ccc4c(c3)OCO4)no2)C1 (stereo not given)",
    "group_label": "inactive"
  }
]
